# Tested Target: T1, Chaetomium thermophilum NatB complex (CtNaa25 with CtNaa20) (Chaetomium thermophilum)
# T1 chain: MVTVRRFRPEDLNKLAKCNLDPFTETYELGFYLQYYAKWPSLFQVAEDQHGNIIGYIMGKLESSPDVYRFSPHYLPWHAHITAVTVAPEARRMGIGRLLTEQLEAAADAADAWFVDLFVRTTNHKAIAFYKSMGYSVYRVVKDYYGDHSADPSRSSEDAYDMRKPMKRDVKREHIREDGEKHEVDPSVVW
# Assay Text: enzyme inhibition kinetics (acetylation microplate assay); 500 nM enzyme; mode of inhibition and inhibitor constant of CoA-Ac-MDEL in the acetylation of MDEL; competitive inhibitor; triplicates
# Condition Summary: both partners purified
No end group written: not given here. CoA = coenzyme A
Property Measured: pKi
Give bare numbers, as −log10 of the molar value.

**Q:** // returns reported pKi for input {CoA-Ac}-MDEL (peptide part of the bisubstrate analog, the canonical NatB substrate MDEL; A tetrapeptide conjugate of 1314 Da; also called MDEL (peptide part M1pD2pE3pL4p); source: synthetic peptide (solid phase), bromo-acetylated and coupled to coenzyme A, purified by reverse phase HPLC) [CoA-Ac-MDEL bisubstrate analog (peptide MDEL joined to coenzyme A through an acetyl bridge)]
**A:** 6.39
